ASSAY_TARGET: OXSR1 (human)
ASSAY_PROTOCOL: KINOMEscan competition binding
MEASUREMENT_PARAMETERS: compound 10.0 µM
ASSAY_ENDPOINT: kinase still bound, per cent of control (%)

In [3]: df
Out[3]:
                                        smi  readout_units  endpoint_result
0  C=CC(=O)Nc1ccc(C(=O)c2sc(Nc3ccc(N4CCN(C)CC4)cc3OC)nc2N)cc1              %               10
1  O=c1[nH]c2ccccc2n1C1CCN(Cc2ccc(-c3nc4cc5[nH]cnc5cc4nc3-c3ccccc3)cc2)CC1              %               81
2  CCN1CCN(Cc2ccc(NC(=O)c3ccc(C)c(/C=C/c4cnc5[nH]ccc5c4OC)c3)cc2C(F)(F)F)CC1              %               74
3         COc1cc2ncnc(Nc3cccc(Cl)c3)c2cc1OC              %               71
4  CNC(=O)Nc1ccc(-c2nc(N3CC4CCC(C3)O4)c3cnn(C4CCC5(CC4)OCCO5)c3n2)cc1              %              100
5  CCOc1cc(N2CCC(O)CC2)ccc1Nc1ncc2c(n1)N(C)c1ccccc1C(=O)N2C              %              100

---

ASSAY_TARGET: NEK1 (human) (UniProt Q96PY6)
Sequence (Q96PY6 whole entry, looked up): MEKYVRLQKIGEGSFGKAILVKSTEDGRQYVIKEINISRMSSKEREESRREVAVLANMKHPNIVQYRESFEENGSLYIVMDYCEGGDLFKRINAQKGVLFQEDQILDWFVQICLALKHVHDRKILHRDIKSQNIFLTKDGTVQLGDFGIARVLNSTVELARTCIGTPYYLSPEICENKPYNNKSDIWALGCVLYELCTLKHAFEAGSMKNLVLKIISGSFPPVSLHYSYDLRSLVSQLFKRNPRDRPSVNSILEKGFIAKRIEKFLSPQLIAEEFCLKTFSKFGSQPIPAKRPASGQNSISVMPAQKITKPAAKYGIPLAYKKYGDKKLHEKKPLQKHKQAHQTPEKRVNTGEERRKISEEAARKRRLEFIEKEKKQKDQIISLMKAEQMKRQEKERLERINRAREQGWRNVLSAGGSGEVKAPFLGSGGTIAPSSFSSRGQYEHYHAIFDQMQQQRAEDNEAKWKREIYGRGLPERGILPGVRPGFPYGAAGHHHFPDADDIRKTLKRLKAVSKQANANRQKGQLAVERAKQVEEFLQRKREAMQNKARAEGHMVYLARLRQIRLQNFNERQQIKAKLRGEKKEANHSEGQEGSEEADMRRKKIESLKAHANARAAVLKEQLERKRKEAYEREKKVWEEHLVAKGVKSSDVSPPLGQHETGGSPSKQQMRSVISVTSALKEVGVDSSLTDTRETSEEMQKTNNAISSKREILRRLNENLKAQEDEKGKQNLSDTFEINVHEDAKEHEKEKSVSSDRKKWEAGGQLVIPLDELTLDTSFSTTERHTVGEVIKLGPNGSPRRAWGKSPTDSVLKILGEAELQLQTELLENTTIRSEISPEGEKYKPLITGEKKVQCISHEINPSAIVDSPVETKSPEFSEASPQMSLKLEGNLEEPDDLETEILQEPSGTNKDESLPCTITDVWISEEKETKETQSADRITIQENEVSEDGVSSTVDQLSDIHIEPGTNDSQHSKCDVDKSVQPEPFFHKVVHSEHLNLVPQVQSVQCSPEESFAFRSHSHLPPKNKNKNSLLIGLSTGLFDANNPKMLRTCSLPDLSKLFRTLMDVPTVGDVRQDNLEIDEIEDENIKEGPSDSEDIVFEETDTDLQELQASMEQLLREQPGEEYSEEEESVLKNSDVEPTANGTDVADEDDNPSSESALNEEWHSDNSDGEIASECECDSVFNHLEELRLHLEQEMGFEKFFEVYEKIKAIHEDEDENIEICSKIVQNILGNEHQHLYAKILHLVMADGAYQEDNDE
ASSAY_PROTOCOL: KINOMEscan competition binding
MEASUREMENT_PARAMETERS: compound 10.0 µM
Quick list: kinase still bound, per cent of control per entry.
ASSAY_ENDPOINT: kinase still bound, per cent of control

In [3]: df
Out[3]:
                                   molecule  endpoint_result
0         COc1cc2ncnc(Nc3cccc(Cl)c3)c2cc1OC              77%
1  COc1cc(C)c(Sc2cnc(NC(=O)c3ccc(CNC(C)C(C)C)cc3)s2)cc1C(=O)N1CCN(C(C)=O)CC1 (centres undefined)             100%
2  Cc1cn(-c2cc(C(=O)Nc3ccc(C)c(NC(=O)c4ccno4)c3)cc(C(F)(F)F)c2)cn1             100%
3  COc1cc(N2CCC(C(N)=O)CC2)ccc1Nc1nc(N)c(Cl)c(Nc2ccccc2S(=O)(=O)C(C)C)n1             100%
4  C=CC(=O)Nc1ccc(C(=O)c2sc(Nc3ccc(N4CCN(C)CC4)cc3OC)nc2N)cc1              64%
5  CC(=O)c1c(C)c2cnc(Nc3ccc(N4CCNCC4)cn3)nc2n(C2CCCC2)c1=O              61%
6  CCOc1cc(N2CCC(O)CC2)ccc1Nc1ncc2c(n1)N(C)c1ccccc1C(=O)N2C             100%
7  N#Cc1cc(-c2ccnc(Nc3ccc(-n4cnc(-c5cccnc5)n4)cc3)n2)cc(N2CCOCC2)c1              57%
8  O=c1[nH]c2ccccc2n1C1CCN(Cc2ccc(-c3nc4cc5[nH]cnc5cc4nc3-c3ccccc3)cc2)CC1             100%
